# assayed target: Gal3S(b1-4)GlcNAc
# assay comment: glycan array binding signal (z-score within array); higher = stronger binding
# study conditions: glycan notation: IUPAC condensed, linker removed
This excerpt belongs to a sample that is enriched for the strongest signals.
attribute measured: glycan array binding signal (z-score)
Returns: the value as a bare number; no unit string appended.

Q. Please give the measured glycan array binding signal (z-score) for this binder: SJCP1084 (Schistosoma japonicum) (protein) MRIINLVIISTALLLINLLQTKSQANGEDTKNGTPDDPGLTKSTELKVEVQALLKDKKTNMRVKWNENLLDNTKPEYHNLRDEACELLLQIVRSVVPLSQDDGECKDVTFTKYVVGTKDGAVNVKLTITFKDSVAINQKPMDLKLKLENDFKNLQSESTLKATKPTFTVKVEKRLIPISKPQTTPPTTAKNDASKENVGDIGGEDSTVPTAAPATAASANEEKDEGDKDNKDSQHPNVLTSNVNDRNLIIALVALMILAIGVALTAAVKQR
A. -0.79
